System: redroot pigweed (Amaranthus retroflexus)
assay-comment: Test G Post-Emergence Protocol
Format: in vivo
experimental-context: Amaranthus retroflexus, post-emergence, 312 h, 62.5 g ai/ha, evaluated after 13 days, read-out: Pigweed, Redroot damage rating (100=total damage to plant; 0=no damage to plant)
Kindly supply the reported pest or weed control at 62.5 g/ha values for the records listed here.
Number only, in %; omit the unit.

Query: State the recorded pest or weed control at 62.5 g/ha for this entry: CN1C[C@@H](c2ccc(C(F)(F)F)cc2)[C@H](C(=O)Nc2nc[nH]n2)C1=O (racemic) [Compound 1534]
Reply: 0

Query: Quick check: pest or weed control at 62.5 g/ha of CN1C[C@@H](c2ccc(C(F)(F)F)cc2)[C@H](C(=O)Nc2nccs2)C1=O (racemic) [Compound 1554] ?
Reply: 0

Query: Look up pest or weed control at 62.5 g/ha: Cc1ccc(NC(=O)[C@@H]2C(=O)N(C)C[C@H]2c2ccc(C(F)(F)F)cc2)nn1 (racemic) [Compound 1543]
Reply: 0

Query: Can you share its pest or weed control at 62.5 g/ha? I mean this molecule: CN1C[C@H](c2ccc3c(c2)CCO3)[C@@H](C(=O)Nc2cccc(F)c2F)C1=O (racemic) [Compound 1499]
Reply: 0

Query: Would you mind telling me what pest or weed control at 62.5 g/ha value was observed for CN1C[C@@H](c2ccc(C(F)(F)F)cc2)[C@H](C(=O)Nc2ccno2)C1=O (racemic) [Compound 1513] ?
Reply: 0

Query: Look up pest or weed control at 62.5 g/ha for this molecule: Cc1nnc(NC(=O)[C@@H]2C(=O)N(C)C[C@H]2c2ccc(C(F)(F)F)cc2)nc1C (racemic) [Compound 1549]
Reply: 0

Query: Endpoint output: pest or weed control at 62.5 g/ha of Cc1ccc(NC(=O)[C@H]2C(=O)N(C)C[C@@H]2c2ccc(C(F)(F)F)cc2)nc1 (racemic) [Compound 1484] . Value?
Reply: 0

Query: Requested read-out: pest or weed control at 62.5 g/ha. Entry: CN1C[C@@H](c2ccc(C(F)(F)F)cc2)[C@H](C(=O)Nc2cccc(Cl)n2)C1=O (racemic) [Compound 1606]
Reply: 40

Query: Data request, read-out pest or weed control at 62.5 g/ha, for CN1C[C@@H](c2ccc(C(F)(F)F)nc2)[C@H](C(=O)Nc2ccccc2F)C1=O (racemic) [Compound 1419]
Reply: 20

Query: Requested read-out: pest or weed control at 62.5 g/ha. Entry: COc1c(Cl)ccc([C@H]2CNC(=O)[C@@H]2C(=O)Nc2cccc(F)n2)c1F (racemic) [Compound 1478]
Reply: 0

Query: Sample CN1C[C@@H](c2ccc(C(F)(F)F)cc2)[C@H](C(=O)Nc2cc(C(F)(F)F)nn2C)C1=O (racemic) [Compound 1510] — what was its pest or weed control at 62.5 g/ha?
Reply: 0

Query: Quick one: pest or weed control at 62.5 g/ha of Cc1ccncc1NC(=O)[C@@H]1C(=O)N(C)C[C@H]1c1ccc(C(F)(F)F)cc1 (racemic) [Compound 1505] ?
Reply: 0

Query: Which value of pest or weed control at 62.5 g/ha has been reported for Cc1c(NC(=O)[C@@H]2C(=O)N(C)C[C@H]2c2ccc(C(F)(F)F)cc2)ccnc1Cl (racemic) [Compound 1631] in the records?
Reply: 20

Query: Look at this molecule and give its reported pest or weed control at 62.5 g/ha. CN1C[C@@H](c2ccc(C(F)(F)F)cc2)[C@H](C(=O)Nc2cnccn2)C1=O (racemic) [Compound 1572]
Reply: 0
